- target-under-test: T1, human neuropeptide Y2 receptor (human, UniProt P49146 1-381)
- T1 sequence (looked up): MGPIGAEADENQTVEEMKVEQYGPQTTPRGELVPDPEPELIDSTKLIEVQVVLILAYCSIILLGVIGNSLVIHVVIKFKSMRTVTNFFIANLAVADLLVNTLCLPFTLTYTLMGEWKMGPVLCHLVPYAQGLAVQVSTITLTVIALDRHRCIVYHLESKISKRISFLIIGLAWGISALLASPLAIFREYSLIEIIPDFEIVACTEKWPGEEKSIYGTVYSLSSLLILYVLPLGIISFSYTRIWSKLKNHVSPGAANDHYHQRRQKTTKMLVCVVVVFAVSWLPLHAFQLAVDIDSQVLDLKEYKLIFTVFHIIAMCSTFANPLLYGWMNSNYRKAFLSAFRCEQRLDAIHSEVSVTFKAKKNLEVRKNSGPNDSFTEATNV
- assay-name: cell-based or functional assay
Starred links: 1 amine or outer side, 2 acyl side, 3 side chain; linkers in the order of their positions; H or OH if unused. Non-standard residues stand in square brackets, D forms with d. Groups on a side chain read outwards from the residue. No end group written: not given here. *: point of attachment. C18 diacid = O=C(O)CCCCCCCCCCCCCCCCC(=O)*; γGlu = O=C(O)[C@H](CCC(=O)[*:2])N[*:1]; AEEA = NCCOCCOCC(=O)O; Aib = CC(C)(N)C(=O)O
measured-parameter: EC50 CreLuc hNPY2R 100% hP (nM)
Only the number, expressed in nM, is required.

YXEGTFTSDYSIXLEKQAQXAFVEWLIKGGPSSGASLRXYYNWLTRQRY (Aib at 2, 13, 20; Tle at 39; K28 side chain: C20DA-gGlu-gGlu-gGlu-gGlu-gGlu-gGlu-eLys; C-terminal NH2) [Compound 119]	80.1
Y[Aib]EGTFTSDYSI[Aib]LEKQAQ[Aib]AFVEWLIK([AEEA-AEEA-γGlu-γGlu-γGlu-γGlu-C18 diacid])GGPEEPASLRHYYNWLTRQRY-NH2 [Compound 161]	41.7
Y[Aib]EGTFTSDYSI[Aib]LEKQAQ[Aib]AFVQWLIKGGPSSGASLRHYYNWLTRQRY-NH2 (not fully specified (residue 28)) [Compound 147]	65.6

Alright, here's another binder for you.
Query :: # input binder: Y[Aib]EGTFTSDYSI[Aib]LEKQAE[Aib]AFVEWLIK([AEEA-AEEA-γGlu-γGlu-γGlu-γGlu-C18 diacid])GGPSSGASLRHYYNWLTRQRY-NH2 [Compound 150] ; wanted: its EC50 CreLuc hNPY2R 100% hP
Result :: 62.7
